Endpoint: Ki. System: human cloned 5-HT6 receptors (Homo sapiens). Items follow.
Sequence (P50406 whole entry): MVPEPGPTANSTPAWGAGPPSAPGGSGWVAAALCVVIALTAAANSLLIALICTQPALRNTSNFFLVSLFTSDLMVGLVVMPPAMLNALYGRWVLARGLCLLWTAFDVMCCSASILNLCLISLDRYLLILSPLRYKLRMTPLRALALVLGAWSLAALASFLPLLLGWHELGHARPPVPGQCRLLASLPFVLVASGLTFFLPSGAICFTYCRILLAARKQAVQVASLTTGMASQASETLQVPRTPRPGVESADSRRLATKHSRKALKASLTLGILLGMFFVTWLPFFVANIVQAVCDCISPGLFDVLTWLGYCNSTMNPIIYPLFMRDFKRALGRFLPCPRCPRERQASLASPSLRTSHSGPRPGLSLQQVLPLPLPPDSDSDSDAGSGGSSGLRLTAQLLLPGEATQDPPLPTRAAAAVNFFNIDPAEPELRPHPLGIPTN
Structures can show the parent of a compound that is named as a salt.
REPORTED ENDPOINT: Ki (nM)

1 = O=C(Nc1ccc2cnn(S(=O)(=O)c3cccc4ccccc34)c2c1)C1CCNCC1
2 = NCCC(=O)Nc1ccc2cnn(S(=O)(=O)c3cccc4ccccc34)c2c1 [Example 4, Hydrochloride]
Input line: Name the one with the greater Ki value, either 1 or 2 as given. Reply briefly: the label of your chosen item.
Output line: 1
(1: 2.3 nM, 2: 0.5 nM)

P = NCCC(=O)Nc1cccc2c1cnn2S(=O)(=O)c1cccc2ccccc12
Q = O=S(=O)(c1cccc2ccccc12)n1ncc2ccc(NCC3CCNCC3)cc21 [Example 14, dihydrochloride]
R = CN(C)CCC(=O)Nc1ccc2cnn(S(=O)(=O)c3cccc4ccccc34)c2c1
Input line: Kindly order the items shown according to Ki, from the highest value down. Give the order by naming the labels one after another as requested.
Output line: Q, P, R
